Reference for the values: patent US4293694A

Dear all, this message contains MIC results, target or system Esherichia coli NIHJ.
property_measured: MIC (µg/mL)

- O=C(O)c1cn2c3c(ccc([N+](=O)[O-])c3c1=O)C1CCCCC12 (stereo not drawn) [Compound 6]: 6.3
- O=C(OCCBr)c1cn2c3c(cc(F)cc3c1=O)C1CCCCC12 (stereo not drawn) [Compound 9]: 25
- CC(=O)Nc1ccc2c3c1c(=O)c(C(=O)O)cn3C1CCCCC21 (stereo not drawn) [Compound 8]: 12.5
- Nc1ccc2c3c1c(=O)c(C(=O)O)cn3C1CCCCC21 (stereo not drawn) [Compound 7]: 25
- COc1cc2c3c(c1)c(=O)c(C(=O)O)cn3C1CCCCC21 (stereo not drawn) [Compound 4]: 12.5
- Cc1cc(C)c2c(=O)c(C(=O)O)cn3c2c1C1CCCCC13 (stereo not drawn) [Compound 5]: 12.5
- CCOC(=O)c1cn2c3c(cc(F)cc3c1=O)C1CCCCC12 (stereo not drawn) [Compound 3]: 25
- NNC(=O)c1cn2c3c(cc(F)cc3c1=O)C1CCCCC12 (stereo not drawn) [Compound 10]: 25
- O=C(NN=Cc1ccc([N+](=O)[O-])o1)c1cn2c3c(cc(F)cc3c1=O)C1CCCCC12 (stereo not drawn) [Compound 11]: 12.5
